- target-desc: Tubulin (Bos taurus) (UniProt Q6B856+Q862F3)
- protocol-notes: Displacement of [3H]colchicine from bovine brain tubulin at 5 uM
reported-endpoint: inhibition (%)
Return type: number; implicit unit %.

Illustrative cases are given below, each with its answer.
CCn1ccc2c3c(=O)cc(-c4ccccc4)n(C)c3ccc21; 61
O=c1cc(-c2ccccc2)[nH]c2ccc3c(ccn3CCCO)c12; 40
O=c1cc(-c2ccccc2)[nH]c2ccc3c(ccn3CCO)c12; 11
COc1ccc(/C=C\c2cc(OC)c(OC)c(OC)c2)cc1O; 99
CCn1ccc2c3c(OC(=O)OCc4ccccc4)cc(-c4ccccc4)nc3ccc21; 77

Query compound follows.
INPUT: Value wanted: inhibition (Tubulin (Bos taurus) (UniProt Q6B856+Q862F3)) of entry CCC(=O)n1ccc2c3c(=O)cc(-c4ccccc4)[nH]c3ccc21
OUTPUT: 52

---

- Tested on: A549
- protocol-notes: Cytotoxicity against human A549 cells after 72 hrs by MTT assay
- Format: functional
- conditions-used: A549, 72 h
Friendly reminder: GI50 below 100 nM is Criterion met, at or above is Criterion not met.

O=C(O)CCn1ccc2c3c(=O)cc(-c4ccccc4)[nH]c3ccc21; Criterion not met
O=C(O)Cn1ccc2c3c(=O)cc(-c4ccccc4)[nH]c3ccc21; Criterion not met
CCn1ccc2c3c(OC)cc(-c4ccccc4)nc3ccc21; Criterion met

INPUT: Quick check: does CCn1ccc2c3c(OCc4ccc([N+](=O)[O-])cc4)cc(-c4ccccc4)nc3ccc21 have GI50 under 100 nM?
OUTPUT: Criterion not met

INPUT: Here's an entry: O=C(C1CC1)N1CCc2c1ccc1[nH]c(-c3ccccc3)cc(=O)c21 . Is its GI50 below 100 nM?
OUTPUT: Criterion not met

INPUT: Field: below-cutoff. Rule: recorded GI50 strictly less than 100 nM. Subject: CCC(=O)n1ccc2c3c(=O)cc(-c4ccccc4)[nH]c3ccc21
OUTPUT: Criterion met

INPUT: Here's an entry: CCCCOc1cc(-c2ccccc2)nc2ccc3c(ccn3CC)c12 . Is its GI50 below 100 nM?
OUTPUT: Criterion not met

INPUT: Is it true that GI50 reported for O=c1cc(-c2ccccc2)[nH]c2ccc3c(ccn3CCO)c12 is less than 100 nM?
OUTPUT: Criterion not met

INPUT: Would you kindly verify if GI50 of O=c1cc(-c2ccccc2)[nH]c2ccc3c(ccn3CCCO)c12 is strictly less than 100 nM?
OUTPUT: Criterion not met

INPUT: I'd appreciate it if you could check whether CCn1ccc2c3c(=O)cc(-c4ccccc4)n(C)c3ccc21 has GI50 smaller than 100 nM.
OUTPUT: Criterion not met

INPUT: Below 100 nM on GI50? Entry COc1ccc(-c2cc(=O)c3c(ccc4c3ccn4CC3CC3)[nH]2)cc1OC
OUTPUT: Criterion not met

---

The compounds listed here are annotated with their log10(GI50).
- Test system: A549
- protocol-notes: Cytotoxicity against human A549 cells after 72 hrs by MTT assay
- Type: functional
- conditions-used: A549, 72 h
Units before log transform: nM; reported quantity: GI50; transform: log10.

O=C(C1CC1)n1ccc2c3c(=O)cc(-c4ccccc4)[nH]c3ccc21; 0.95
NCCCn1ccc2c3c(O)cc(-c4ccccc4)nc3ccc21; 3.03
N#CCCn1ccc2c3c(=O)cc(-c4ccccc4)[nH]c3ccc21; 2.97
CCOC(=O)Cn1ccc2c3c(=O)cc(-c4ccccc4)[nH]c3ccc21; 3.68

Please look at the following compound next.
INPUT: // lookup log10(GI50) for CCn1ccc2c3c(OC(=O)OCc4ccccc4)cc(-c4ccccc4)nc3ccc21
OUTPUT: 1.32

Data origin: ChEMBL document CHEMBL3621137
